Provide the reported kon of each item.
target-desc: human DLL3 protein (extracellular segment, His tag) (human) (UniProt Q9NYJ7)
Sequence (Q9NYJ7 27-492): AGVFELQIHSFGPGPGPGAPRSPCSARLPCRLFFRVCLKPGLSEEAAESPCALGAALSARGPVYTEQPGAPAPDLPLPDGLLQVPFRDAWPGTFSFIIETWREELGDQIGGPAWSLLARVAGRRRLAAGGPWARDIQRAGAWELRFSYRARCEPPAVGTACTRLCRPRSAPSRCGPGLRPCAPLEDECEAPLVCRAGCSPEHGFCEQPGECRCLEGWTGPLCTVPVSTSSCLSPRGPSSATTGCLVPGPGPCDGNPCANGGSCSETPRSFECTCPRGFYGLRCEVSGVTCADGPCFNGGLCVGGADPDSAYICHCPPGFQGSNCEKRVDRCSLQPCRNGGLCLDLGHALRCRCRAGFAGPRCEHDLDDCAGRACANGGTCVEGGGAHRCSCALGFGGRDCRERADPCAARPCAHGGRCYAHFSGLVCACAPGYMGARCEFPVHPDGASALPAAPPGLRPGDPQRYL
assay-remarks: SPR (Biacore 8K), antibody captured on Protein A chip, DLL3 antigen in solution, 1:1 Langmuir fit
Give bare numbers, in M⁻¹ s⁻¹.

| binder | result-unit | kon |
| --- | --- | --- |
| mab015 scFv-hFc (Fc fusion, part only; not given: linker and human IgG1 Fc, not shown: a dimerising Fc or GST) scFv, part: NIVMTQSPKSMSMSVGERVTLSCKASENVGTYVSWFQQKPEQSPKLLIYGASNRYTGVPDRFTGSGSATDFTLTISSVQAEDLADYHCGQFYSFPCTFGGGTKLEIKEVKLEESGGGLVQPGGSMKLSCVASGITFSNFWMNWVRQSPEKGLEWVAQIRLKSDDYATHYAESVKGRFTISRDDSKGSVYLQMNNLRTEDTGIHYCTTGYYFDYWGQGTTLTVSS | M⁻¹ s⁻¹ | 2.45e+06 |
| mab008 scFv-hFc (Fc fusion, part only; not given: linker and human IgG1 Fc, not shown: a dimerising Fc or GST) scFv, part: DIVMTQSQKFMSTSVGDRVSITCKASQNVGTAVAWYQQKPGQSPKLLIFSASIRYTGVPDRFTGSGSGTDFTLTISNMQSEDLADYFCQQYSSSPYTFGGGTKLEIKEVQLQQSGPVLVKPGASVKMSCKASGYTFTDYYMNWVKRSHGKSLEWIGIINPYNGGTSYNQKFRGKATLTVDKSSNTAYMELNSLTSEDSAVYYCSRYDYDYDVEGAMDYWGQGTSVTVSS | M⁻¹ s⁻¹ | 891000 |
| Hab014VL1VH2-hFc (scFv, part only; not given: VL-VH linker and human IgG1 Fc, V domains shown, not shown: another chain or arm of the molecule; a dimerising Fc or GST; small tags and cut ends) VL: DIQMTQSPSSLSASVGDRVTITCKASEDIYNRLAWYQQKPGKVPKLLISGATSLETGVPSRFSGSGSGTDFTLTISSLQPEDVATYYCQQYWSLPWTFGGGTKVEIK VH: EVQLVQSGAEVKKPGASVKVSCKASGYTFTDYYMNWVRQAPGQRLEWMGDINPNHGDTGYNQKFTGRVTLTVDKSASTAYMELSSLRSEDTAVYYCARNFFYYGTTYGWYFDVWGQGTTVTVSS | M⁻¹ s⁻¹ | 1.02e+06 |

Need kon for each of these binders.
1. Hab015VL4VH6b-hFc (Fc fusion, part only; not given: VL-VH linker and human IgG1 Fc, not shown: another chain or arm of the molecule; a dimerising Fc or GST; small tags and cut ends) VL: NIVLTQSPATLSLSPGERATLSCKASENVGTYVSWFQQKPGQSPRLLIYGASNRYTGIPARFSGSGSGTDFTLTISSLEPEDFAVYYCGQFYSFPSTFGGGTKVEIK VH: EVQLVESGGGLVKPGGSLRLSCAASGITFSNFWMNWVRQAPEKGLEWVGQIRLKSDQYATHYAESVKGRFTISREDSKNTVYLQMNSLKTEDTAVYYCTTGYYFDYWGQGTTVTVSS
2. Hab009VL2aVH1-hFc (scFv, part only; not given: VL-VH linker and human IgG1 Fc, V domains shown, not shown: another chain or arm of the molecule; a dimerising Fc or GST; small tags and cut ends) VL: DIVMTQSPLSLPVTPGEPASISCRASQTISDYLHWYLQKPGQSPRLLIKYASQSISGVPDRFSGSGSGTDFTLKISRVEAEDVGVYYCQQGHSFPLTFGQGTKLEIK VH: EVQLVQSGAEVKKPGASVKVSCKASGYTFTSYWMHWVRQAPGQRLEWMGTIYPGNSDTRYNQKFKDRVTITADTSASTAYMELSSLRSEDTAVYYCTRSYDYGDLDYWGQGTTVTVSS

Reply:
1: 1.91e+06; 2: 5.79e+06
